Species: Mus musculus
Assay: Maximum reduction in blood glucose levels in KKA mice at a dosage of 0.005% in diet
Format: functional
reported.metric: Reduction (%)

[[record]]
molecule = "Cc1oc(-c2ccccc2)nc1CCOc1ccc(CC2SC(=O)NC2=O)cc1 (configuration not stated)"
measured_number = 59

[[record]]
molecule = "Cc1nc(CCOc2ccc(/C=C3\\SC(=O)NC3=O)cc2)cs1"
measured_number = 34

[[record]]
molecule = "O=C1NC(=O)C(Cc2ccc(OCCc3nc(-c4ccccc4)oc3CO)cc2)S1 (configuration not stated)"
measured_number = 31

[[record]]
molecule = "CC(C)c1nc(CCOc2ccc(CC3SC(=O)NC3=O)cc2)cs1 (configuration not stated)"
measured_number = 56

[[record]]
molecule = "Cc1nc(C(=O)COc2ccc(CC3SC(=O)NC3=O)cc2)c(C)o1 (configuration not stated)"
measured_number = 39

[[record]]
molecule = "CSc1cccc(-c2nc(CCOc3ccc(CC4SC(=O)NC4=O)cc3)c(C)o2)c1 (configuration not stated)"
measured_number = 52

[[record]]
molecule = "Cc1oc(CCOc2ccc(CC3SC(=O)NC3=O)cc2)nc1CC(C)C (configuration not stated)"
measured_number = 53

[[record]]
molecule = "CCc1oc(C)nc1CCOc1ccc(CC2SC(=O)NC2=O)cc1 (configuration not stated)"
measured_number = 46

[[record]]
molecule = "CCCc1nc(COc2ccc(CC3SC(=O)NC3=O)cc2)co1 (configuration not stated)"
measured_number = 12

[[record]]
molecule = "Cc1nc(COc2ccc(CC3SC(=O)NC3=O)cc2)cs1 (configuration not stated)"
measured_number = 19

[[record]]
molecule = "Cc1oc(-c2ccccc2)nc1COc1ccc(CC2SC(=O)NC2=O)cc1 (configuration not stated)"
measured_number = 21

[[record]]
molecule = "Cc1oc(-c2ccccc2)nc1C(O)COc1ccc(CC2SC(=O)NC2=O)cc1 (configuration not stated)"
measured_number = 58

[[record]]
molecule = "Cc1oc(-c2ccco2)nc1CCOc1ccc(CC2SC(=O)NC2=O)cc1 (configuration not stated)"
measured_number = 50

[[record]]
molecule = "COc1ccc(-c2nc(CCOc3ccc(CC4SC(=O)NC4=O)cc3)c(C)o2)cc1 (configuration not stated)"
measured_number = 55

[[record]]
molecule = "O=C1NC(=O)C(Cc2ccc(OCc3csc(-c4ccccc4)n3)cc2)S1 (configuration not stated)"
measured_number = 28

[[record]]
molecule = "Cc1scnc1CCOc1ccc(CC2SC(=O)NC2=O)cc1 (configuration not stated)"
measured_number = 52

[[record]]
molecule = "CCc1nc(CCOc2ccc(CC3SC(=O)NC3=O)cc2)cs1 (configuration not stated)"
measured_number = 55

[[record]]
molecule = "Cc1oc(-c2ccccc2)nc1C(O)COc1ccc(/C=C2\\SC(=O)NC2=O)cc1 (configuration not stated)"
measured_number = 56

[[record]]
molecule = "Cc1oc(CCOc2ccc(CC3SC(=O)NC3=O)cc2)nc1C1CCCCC1 (configuration not stated)"
measured_number = 54

[[record]]
molecule = "Cc1oc(-c2ccc(Cl)cc2)nc1CCOc1ccc(/C=C2\\SC(=O)NC2=O)cc1"
measured_number = 54

[[record]]
molecule = "Cc1oc(C2(C)CCCCC2)nc1CCOc1ccc(/C=C2\\SC(=O)NC2=O)cc1"
measured_number = 24

[[record]]
molecule = "Cc1oc(C2CCCCC2)nc1C(O)COc1ccc(CC2SC(=O)NC2=O)cc1 (configuration not stated)"
measured_number = 49

